Entry source: ChEMBL document CHEMBL1201862

Items are presented alongside their recorded log10 of GI50.
test system: HCT-15
Note: values are log10 of GI50 expressed in µM.

For orientation, consider the following solved cases.
compound	recordedNumber
C=CC/C=C/C/C=C/CCCCCCCc1cccc(O)c1C(=O)O	1.68
CCN(CC)CCOC(c1cc(OC)ccc1OC)c1ccc2n1-c1ccccc1OC2 (stereo not given)	1.06
Cc1cc(N(CCC#N)CCC#N)ccc1C(/N=N/c1ccc(Cl)cc1)=N\NC(=O)c1cc(Cl)ccc1O	1.60
CC(C)(CO)NC1=C(Cl)C(=O)c2c(O)ccc(O)c2C1=O	-0.25

State measured log10 of GI50 of the compound COc1cc(C2c3cc4c(cc3[C@@H](Nc3cccc([N+](=O)[O-])c3)C3COC(=O)[C@H]23)OCO4)cc(OC)c1O (stereo not given in full) with HCT-15.
0.14

State measured log10 of GI50 of the compound Cc1cccc2c(N)c3cccc(C(=O)NCC[N+](C)(C)[O-])c3nc12 with HCT-15.
1.05

State measured log10 of GI50 of the compound CC1=CC(=O)[C@@H](O)[C@]2(C)[C@H]3[C@@]4(O)OC[C@@]35[C@@H](C[C@@H]12)OC(=O)C(OC(=O)CC1=CCCC1)[C@H]5[C@@H](C)[C@H]4O (stereo not given in full) with HCT-15.
-1.23

State measured log10 of GI50 of the compound CN(C)CCCN1c2ccccc2Sc2ccc3ccccc3c21 with HCT-15.
0.81

State measured log10 of GI50 of the compound CCCCCCCCCCCCOP(=O)(O)OCC(N)C(=O)O (stereo not given) with HCT-15.
1.23

State measured log10 of GI50 of the compound CCOC(=O)c1cc(C)nc2c1c(=O)n(-c1ccccc1)c(=O)n2CCCCN1CCN(c2ccccc2)CC1 with HCT-15.
1.69

State measured log10 of GI50 of the compound O=C(O)/C(Cl)=C(/Cl)C(=O)Nc1cccc(Cl)c1 with HCT-15.
1.22

State measured log10 of GI50 of the compound Cc1ccc(NCCN(C)C)c2c(=O)c3cc(O)ccc3sc12 with HCT-15.
0.43

State measured log10 of GI50 of the compound CC(C)C(=O)/C=C/S/C=C/C(=O)C(C)C with HCT-15.
0.51

State measured log10 of GI50 of the compound Nc1c(S(=O)(=O)c2ccccc2)c2nc3ccccc3nc2n2c1nc1ccccc12 with HCT-15.
1.56

State measured log10 of GI50 of the compound O=C1CSc2nnc(CCCCCCCCc3nnc4n3NC(=O)CS4)n2N1 with HCT-15.
1.57

----------
system: CAKI-1; assay: NCI tumour cell line growth inhibition, 48 h
Where a name gives a salt, the structure may show the parent alone. Activity calls are given as the source filed them. Cut-off read from the data, not from the text of the source: active = GI50 up to about 1.1 µM and inactive = higher. Residues, ends and D or L forms follow the SMILES beside them. *: point of attachment. Tfa = O=C(C(F)(F)F)*
Items are presented alongside their recorded GI50.

For orientation, consider the following solved cases.
compound	GI50
O=C(O)CC(NC(=O)C(F)(F)F)C(=O)NC(Cc1ccc(O)cc1)C(=O)O (stereo not drawn) (Tfa-Asp-Tyr-OH; configuration not given here)	> 50 µM (inactive)
Clc1ccc(-c2nn3c(COc4cccc(OCc5nnc6sc(-c7ccc(Cl)cc7)nn56)c4)nnc3s2)cc1	22 µM (inactive)
COc1ccc(N2N=NN(C(C)C)/C2=C(/Cl)c2nnnn2-c2ccc(OC)cc2)cc1	1.75 µM (inactive)
CN(C(=O)C12C3C4C1C1C2C3C41C(=O)C(C)(C)C)C(C)(C)C (stereo not given)	> 100 µM (inactive)
CC(C)(C)[Si](C)(C)OCC1OC(n2cnc3c(=O)[nH]c(N)nc32)C(O[Si](C)(C)C(C)(C)C)C1O[Si](C)(C)C(C)(C)C (stereo not given)	10.9 µM (inactive)
C=C(C(=O)O)[C@@H]1C[C@@H]2O[C@H]1CC(C)=CCC/C(C)=C/CC[C@@]2(C)O	> 100 µM (inactive)

Determine its reported GI50: COc1ccccc1C1CC(=O)CC(c2ccccc2OC)C12C(=O)NC(=S)NC2=O (stereo not given)
68.9 µM (inactive)

Determine its reported GI50: CC(=O)C1CCN(c2ccccc2)C1 (stereo not given)
> 100 µM (inactive)

Determine its reported GI50: CC1(c2ccc(F)cc2)CC(c2ccc(F)cc2)=C(C#N)C(=C(C#N)C#N)N1 (stereo not given)
16 µM (inactive)

Determine its reported GI50: CCCCCC(=O)Nc1[nH]nnc1C(N)=O
> 100 µM (inactive)

Determine its reported GI50: CC1=NN(c2cccc(Cl)c2)C2(C1=Cc1ccccc1)C(Cl)C(=O)N2c1nc2ccccc2s1 (stereo not given)
17.7 µM (inactive)

Determine its reported GI50: COc1nc(C)nc2sc3c(c12)CCCC3
> 100 µM (inactive)

Determine its reported GI50: O=S(=O)(/C=C/c1ccc(Cl)cc1Cl)Cc1ccccc1CS(=O)(=O)/C=C/c1ccc(Cl)cc1Cl
> 100 µM (inactive)

Determine its reported GI50: Cc1cc2c(=O)cc(-c3ccc(C(F)(F)F)cc3)oc2c(C(=O)O)c1C
> 100 µM (inactive)

Determine its reported GI50: CCOc1ccccc1NC(=O)CCc1n[nH]c(=S)o1
> 100 µM (inactive)

Determine its reported GI50: CC(C)c1ccc2c(c1)/C(=C1/Nc3ccccc3/C1=N/O)C(=O)N2
4.29 µM (inactive)
